Hello, the source for this data is paper PMC4456386, in case you need it.

- System: Bet v 1d (Betula pendula, UniProt P43177)
- Construct: made in house
- Sequence (P43177 whole entry): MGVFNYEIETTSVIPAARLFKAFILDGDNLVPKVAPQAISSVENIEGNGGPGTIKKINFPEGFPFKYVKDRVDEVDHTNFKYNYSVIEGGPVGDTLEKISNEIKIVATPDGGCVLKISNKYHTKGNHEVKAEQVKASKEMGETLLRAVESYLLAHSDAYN
- Experimental Details: UV/VIS equilibrium titration of flavonoids with Bet v 1d
- Format: binding, Betula verrucosa
- Run Conditions: complex with Bet v 1d
Metric Name: Absorption maxima, Bet v 1d:Flavonoid (nm)
Express your answer in nm, writing the number without its unit.

Use the examples below as a reference point.
{"Test Smiles": "O=C1C[C@@H](c2ccc(O)cc2)Oc2cc(O)cc(O)c21", "Metric Name": "Absorption maxima, Bet v 1d:Flavonoid", "Recorded Number": 325}
{"Test Smiles": "O=c1c(O)c(-c2ccc(O)c(O)c2)oc2cc(O)cc(O)c12", "Metric Name": "Absorption maxima, Bet v 1d:Flavonoid", "Recorded Number": 382}
{"Test Smiles": "O=c1c(O)c(-c2cc(O)c(O)c(O)c2)oc2cc(O)cc(O)c12", "Metric Name": "Absorption maxima, Bet v 1d:Flavonoid", "Recorded Number": 382}

# next compound below
The compound identified as O=c1c(O)c(-c2ccc(O)c(O)c2)oc2cc(O)ccc12 registered its Absorption maxima, Bet v 1d:Flavonoid at 371

====

- System: Bet v 1m (Betula pendula, UniProt P43186)
- Construct: made in house
- Sequence (P43186 whole entry): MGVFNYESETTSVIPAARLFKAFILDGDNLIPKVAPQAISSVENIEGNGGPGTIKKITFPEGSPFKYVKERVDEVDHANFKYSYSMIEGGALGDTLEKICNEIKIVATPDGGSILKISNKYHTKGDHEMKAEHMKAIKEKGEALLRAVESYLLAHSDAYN
- Experimental Details: 1H-15N HSQC NMR titration (chemical shift perturbation) of 15N-Bet v 1m
- Assay type: binding, Betula verrucosa
- Run Conditions: 1H-15N HSQC titration, up to 15-fold excess

{"Compound": "O=C[C@H](O)[C@@H](O)[C@@H](O)[C@H](O)CO", "binding to Bet v 1m (in words)": "no detectable affinity"}
{"Compound": "OC[C@H]1OC(O)[C@H](O)[C@@H](O)[C@@H]1O (stereo partly shown)", "binding to Bet v 1m (in words)": "no detectable affinity"}

====

Reported Absorption maxima, Bet v 1a:Flavonoid values follow for various molecules
- System: Bet v 1a (Betula pendula, UniProt P15494)
- Construct: made in house
- Sequence (P15494 whole entry): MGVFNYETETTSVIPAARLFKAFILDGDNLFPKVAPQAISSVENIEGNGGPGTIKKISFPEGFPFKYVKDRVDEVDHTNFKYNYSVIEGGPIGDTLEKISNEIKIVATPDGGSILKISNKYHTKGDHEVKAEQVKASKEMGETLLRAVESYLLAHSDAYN
- Experimental Details: UV/VIS equilibrium titration of flavonoids with Bet v 1a
- Format: binding, Betula verrucosa
- Run Conditions: complex with Bet v 1a
Give the quantity in nm, number only.

{"Molecule": "O=c1c(O)c(-c2ccc(O)c(O)c2)oc2cc(O)ccc12 [Fisetin, fisetin]", "Result Units": "nm", "Recorded Number": 372}
{"Molecule": "O=c1c(O)c(-c2ccc(O)c(O)c2)oc2cc(O)cc(O)c12 [Quercetin, quercetin]", "Result Units": "nm", "Recorded Number": 382}
{"Molecule": "O=c1c(O)c(-c2cc(O)c(O)c(O)c2)oc2cc(O)cc(O)c12 [Myricetin, myricetin]", "Result Units": "nm", "Recorded Number": 387}

Per the reported Bet v 1a (Betula pendula, UniProt P15494) data, O=C1C[C@@H](c2ccc(O)cc2)Oc2cc(O)cc(O)c21 [Naringenin, naringenin] has Absorption maxima, Bet v 1a:Flavonoid of 325

====

- System: Bet v 1d (Betula pendula, UniProt P43177)
- Construct: made in house
- Experimental Details: 1H-15N HSQC NMR titration (chemical shift perturbation) of 15N-Bet v 1d
- Format: binding, Betula verrucosa
- Run Conditions: Dissociation constant Kd (averaged Kd app), NMR, Bet v 1d; average of all analysable residues with CSPs > 0.08 ppm, ± standard deviation
Metric Name: Kd
Lab note: write values as number then unit, every time.

For record O=c1cc(-c2ccccc2)oc2ccccc12 the listed Kd is 69.9 µM

====

- System: Bet v 1a (Betula pendula)
- Construct: made in house
- Experimental Details: UV/VIS equilibrium titration of flavonoids with Bet v 1a
- Type: binding, Betula verrucosa
- Run Conditions: Dissociation constant Kd, UV/VIS titration, Bet v 1a, 298 K, pH 7.0, 10% DMSO; error = standard error of fit
Metric Name: pKd
Note on pKd: it is the negative log10 of concentration, concentration in mol/L.

Reported pKd ( O=c1c(O)c(-c2ccc(O)c(O)c2)oc2cc(O)ccc12 [Fisetin, fisetin] ) = 4.84

====

- System: Bet v 1d (Betula pendula)
- Construct: made in house
- Experimental Details: UV/VIS equilibrium titration of flavonoids with Bet v 1d
- Type: binding, Betula verrucosa
compounds and their reported Kd
Enter your answer as a number in µM; do not include the unit.

# count of solved cases: 3
{"Compound": "O=c1c(O)c(-c2cc(O)c(O)c(O)c2)oc2cc(O)cc(O)c12 [Myricetin, myricetin]", "Recorded Number": 1.2}
{"Compound": "O=C1C[C@@H](c2ccc(O)cc2)Oc2cc(O)cc(O)c21 [Naringenin, naringenin]", "Recorded Number": 37.7}
{"Compound": "O=c1c(O)c(-c2ccc(O)c(O)c2)oc2cc(O)cc(O)c12 [Quercetin, quercetin]", "Recorded Number": 10.2}

Summary: O=c1c(O)c(-c2ccc(O)c(O)c2)oc2cc(O)ccc12 [Fisetin, fisetin] , Bet v 1d (Betula pendula), Kd = 13.9

====

- System: Bet v 1m (Betula pendula, UniProt P43186)
- Construct: made in house
- Experimental Details: 1H-15N HSQC NMR titration (chemical shift perturbation) of 15N-Bet v 1m
- Assay type: binding, Betula verrucosa
- Run Conditions: Dissociation constant Kd (averaged Kd app), NMR, average of all analysable residues with CSPs > 0.08 ppm, ± standard deviation
Metric Name: Kd (µM)
The response must be a number in µM with no trailing unit.

Example cases with answers are listed next.
{"Test Smiles": "O=c1c(O)c(-c2ccc(O)c(O)c2)oc2cc(O)cc(O)c12", "System": "Bet v 1m (Betula pendula, UniProt P43186)", "Result Units": "µM", "Recorded Number": 65.8}
{"Test Smiles": "O=c1cc(-c2ccccc2)oc2ccccc12", "System": "Bet v 1m (Betula pendula, UniProt P43186)", "Result Units": "µM", "Recorded Number": 213}
{"Test Smiles": "O=c1c(O)c(-c2cc(O)c(O)c(O)c2)oc2cc(O)cc(O)c12", "System": "Bet v 1m (Betula pendula, UniProt P43186)", "Result Units": "µM", "Recorded Number": 99.3}
{"Test Smiles": "O=C1C[C@@H](c2ccc(O)cc2)Oc2cc(O)cc(O)c21", "System": "Bet v 1m (Betula pendula, UniProt P43186)", "Result Units": "µM", "Recorded Number": 22.1}

Alright, here's another compound for you.
Memo: O=c1c(O)c(-c2ccc(O)c(O)c2)oc2cc(O)ccc12 , reported Kd: 85.1

====

- System: Bet v 1a (Betula pendula)
- Construct: made in house
- Experimental Details: UV/VIS equilibrium titration of flavonoids with Bet v 1a
- Assay type: binding, Betula verrucosa
- Run Conditions: Dissociation constant Kd, UV/VIS titration, Bet v 1a, 298 K, pH 7.0, 10% DMSO; error = standard error of fit
- Description: All flavonoids and Bet v 1 isoforms were dissolved in 50 mM sodium phosphate, 50 mM NaCl, 10% (v/v) DMSO, pH 7.0, to a final concentration of 10 to 20 μM in 500 μl. Absorption spectra from 200–800 nm were recorded at 25°C in a 1 cm quartz cuvette (Hellma GmbH) using a 8453 UV-visible spectrophotometer (Agilent). To further characterize flavonoid binding to Bet v 1, titration experiments were performed by adding small amounts of concentrated Bet v 1 isoform a, d or m to different flavonoids. […]
Metric Name: Kd (µM)
Please state the figure in µM; there is no need to write the unit.

{"Test Smiles": "O=c1c(O)c(-c2cc(O)c(O)c(O)c2)oc2cc(O)cc(O)c12", "Result Units": "µM", "Recorded Number": 4.2}

For reference, reported Kd for O=c1c(O)c(-c2ccc(O)c(O)c2)oc2cc(O)cc(O)c12 stands at 9.2

The measured Kd associated with O=C1C[C@@H](c2ccc(O)cc2)Oc2cc(O)cc(O)c21 reads 60.6
